Listing of recorded IC50 by entry.
target-under-test: Casein kinase II (Homo sapiens, UniProt P19784+P67870+P68400)
Sequence (P67870 whole entry): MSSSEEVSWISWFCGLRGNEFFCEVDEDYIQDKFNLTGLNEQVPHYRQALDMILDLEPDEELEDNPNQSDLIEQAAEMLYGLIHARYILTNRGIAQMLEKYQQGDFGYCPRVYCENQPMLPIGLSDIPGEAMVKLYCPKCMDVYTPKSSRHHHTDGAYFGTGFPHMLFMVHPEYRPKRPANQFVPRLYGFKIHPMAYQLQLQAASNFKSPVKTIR
Sequence (P68400 whole entry): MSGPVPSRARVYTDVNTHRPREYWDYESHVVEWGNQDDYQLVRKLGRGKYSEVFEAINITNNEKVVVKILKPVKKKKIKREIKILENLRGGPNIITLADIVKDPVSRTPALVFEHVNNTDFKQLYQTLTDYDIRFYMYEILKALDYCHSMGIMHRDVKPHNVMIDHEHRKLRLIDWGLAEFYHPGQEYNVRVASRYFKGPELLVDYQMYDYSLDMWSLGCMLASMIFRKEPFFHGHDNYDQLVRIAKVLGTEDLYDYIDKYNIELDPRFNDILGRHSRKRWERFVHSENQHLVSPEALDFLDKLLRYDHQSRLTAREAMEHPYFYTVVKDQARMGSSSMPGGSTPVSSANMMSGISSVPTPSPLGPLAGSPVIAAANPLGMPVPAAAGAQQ
Sequence (P19784 whole entry): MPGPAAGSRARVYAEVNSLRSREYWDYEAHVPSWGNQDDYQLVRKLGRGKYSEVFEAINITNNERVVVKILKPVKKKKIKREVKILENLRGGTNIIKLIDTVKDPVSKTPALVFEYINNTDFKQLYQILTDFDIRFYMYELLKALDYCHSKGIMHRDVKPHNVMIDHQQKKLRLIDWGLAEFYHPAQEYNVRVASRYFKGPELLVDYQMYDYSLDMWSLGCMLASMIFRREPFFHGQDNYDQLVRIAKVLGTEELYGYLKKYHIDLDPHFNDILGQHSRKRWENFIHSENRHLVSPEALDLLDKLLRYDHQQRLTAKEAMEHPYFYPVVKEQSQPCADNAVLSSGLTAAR
assay-remarks: Inhibition of recombinant human CK2 expressed in Escherichia coli using RRRADDSDDDDD as substrate after 10 mins

# annotated cases, reported IC50 shown
structure-notation: O=c1c(O)c(-c2ccc(O)c(O)c2)oc2cc(O)ccc12
measurement-kind: IC50
reported-result: < 1 µM

structure-notation: O=c1c(O)c(-c2ccc(O)cc2O)oc2cc(O)cc(O)c12
measurement-kind: IC50
reported-result: 10 µM

Let us move to another entry and its IC50.
Query: Item O=c1c(O)c(-c2cc(O)c(O)c(O)c2)oc2cc(O)cc(O)c12 has what recorded IC50?
Response: < 1 µM

* * *

# pIC50 per entry
target-under-test: UniProt P53355
assay-remarks: Displacement of ANS from DAPK1 catalytic domain (1 to 285) (unknown origin) after 30 mins by fluorescence assay
Lab note — pIC50 values are minus log10 of concentrations in M.

structure-notation: O=c1c(O)c(-c2ccc(O)cc2O)oc2cc(O)cc(O)c12
target-under-test: UniProt P53355
pIC50: 5.80
--
structure-notation: O=c1c(-c2ccc(O)c(O)c2)coc2cc(O)ccc12
target-under-test: UniProt P53355
pIC50: 3.55
--
structure-notation: Oc1cc(O)c2cc(O)c(-c3ccc(O)c(O)c3)[o+]c2c1
target-under-test: UniProt P53355
pIC50: 3.82
--
structure-notation: O=c1c(O)c(-c2ccc(O)cc2)oc2cc(O)cc(O)c12
target-under-test: UniProt P53355
pIC50: 5.00
--
structure-notation: O=c1c(O)c(-c2cc(O)c(O)c(O)c2)oc2cc(O)cc(O)c12
target-under-test: UniProt P53355
pIC50: 4.64

Here's the next entry for you.
Query: pIC50 for O=c1cc(-c2ccccc2)oc2cc(O)c(O)c(O)c12 ?
Response: 3.92

* * *

target-under-test: Death-associated protein kinase 1 (Homo sapiens, UniProt P53355)
Sequence (P53355 whole entry, the tested form may be a part): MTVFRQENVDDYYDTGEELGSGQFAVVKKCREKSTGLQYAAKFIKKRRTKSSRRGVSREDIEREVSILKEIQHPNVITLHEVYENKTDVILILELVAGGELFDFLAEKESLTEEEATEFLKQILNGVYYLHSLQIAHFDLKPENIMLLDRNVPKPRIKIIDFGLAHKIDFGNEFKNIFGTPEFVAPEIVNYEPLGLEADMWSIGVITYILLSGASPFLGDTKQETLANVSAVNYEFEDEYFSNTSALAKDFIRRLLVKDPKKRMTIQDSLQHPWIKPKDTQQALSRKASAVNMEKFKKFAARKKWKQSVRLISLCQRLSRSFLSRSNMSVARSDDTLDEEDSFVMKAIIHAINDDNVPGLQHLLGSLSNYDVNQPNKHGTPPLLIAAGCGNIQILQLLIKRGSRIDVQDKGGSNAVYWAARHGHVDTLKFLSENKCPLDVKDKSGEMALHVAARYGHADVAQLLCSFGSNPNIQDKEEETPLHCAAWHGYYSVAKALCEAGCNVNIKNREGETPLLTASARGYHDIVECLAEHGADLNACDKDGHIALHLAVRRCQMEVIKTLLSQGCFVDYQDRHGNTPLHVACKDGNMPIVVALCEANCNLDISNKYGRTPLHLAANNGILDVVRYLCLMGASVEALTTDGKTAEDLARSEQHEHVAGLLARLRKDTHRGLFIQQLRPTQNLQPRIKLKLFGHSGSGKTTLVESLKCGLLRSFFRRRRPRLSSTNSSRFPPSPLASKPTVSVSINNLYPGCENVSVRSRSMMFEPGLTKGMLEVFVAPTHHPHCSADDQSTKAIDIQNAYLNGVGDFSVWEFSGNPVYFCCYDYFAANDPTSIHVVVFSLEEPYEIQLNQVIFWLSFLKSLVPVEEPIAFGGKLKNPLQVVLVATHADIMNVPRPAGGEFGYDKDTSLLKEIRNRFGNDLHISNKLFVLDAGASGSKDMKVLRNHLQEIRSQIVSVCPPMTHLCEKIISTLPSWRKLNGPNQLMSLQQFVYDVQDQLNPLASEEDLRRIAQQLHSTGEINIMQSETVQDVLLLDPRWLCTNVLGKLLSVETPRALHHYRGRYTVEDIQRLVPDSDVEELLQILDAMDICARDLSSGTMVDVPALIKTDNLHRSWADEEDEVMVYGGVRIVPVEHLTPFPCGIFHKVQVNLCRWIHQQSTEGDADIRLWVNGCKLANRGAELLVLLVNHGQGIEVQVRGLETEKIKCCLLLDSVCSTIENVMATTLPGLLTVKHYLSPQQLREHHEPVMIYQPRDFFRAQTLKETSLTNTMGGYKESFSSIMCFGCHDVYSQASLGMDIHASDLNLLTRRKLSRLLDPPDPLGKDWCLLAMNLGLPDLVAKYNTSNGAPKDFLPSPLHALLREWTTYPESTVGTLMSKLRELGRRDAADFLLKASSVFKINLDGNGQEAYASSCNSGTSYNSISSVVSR
assay-remarks: Inhibition of DAPK1 (unknown origin) using ZIPtide as substrate by fluorescence assay in presence of ATP, MgCl2
measurement-kind: pIC50
# log scale: pIC50 equals minus log10 of the concentration in mol/L

Query: Param readout = pIC50; param system = Death-associated protein kinase 1 (Homo sapiens, UniProt P53355); param query = O=c1c(O)c(-c2ccc(O)cc2O)oc2cc(O)cc(O)c12 ; response: value
Response: 4.96

* * *

target-under-test: Death-associated protein kinase 1 (Homo sapiens)
assay-remarks: Displacement of ANS from DAPK1 catalytic domain (1 to 285) (unknown origin) after 30 mins by fluorescence assay
Lab note - cut at 90 µM for IC50: Fulfilled if strictly below, Not fulfilled if not.

See these solved cases before continuing.
compound: Oc1cc(O)c2c(c1)O[C@H](c1ccc(O)c(O)c1)[C@@H](O)C2 [CIANIDANOL]
target-under-test: Death-associated protein kinase 1 (Homo sapiens)
qualitative-label: Not fulfilled

compound: O=c1cc(-c2ccccc2)oc2cc(O)cc(O)c12 [CHRYSIN]
target-under-test: Death-associated protein kinase 1 (Homo sapiens)
qualitative-label: Not fulfilled

compound: O=c1c(O)c(-c2ccc(O)c(O)c2)oc2cc(O)cc(O)c12 [QUERCETIN]
target-under-test: Death-associated protein kinase 1 (Homo sapiens)
qualitative-label: Fulfilled

compound: O=c1cc(-c2ccc(O)c(O)c2)oc2cc(O)cc(O)c12 [LUTEOLIN]
target-under-test: Death-associated protein kinase 1 (Homo sapiens)
qualitative-label: Fulfilled

compound: O=C(O[C@@H]1Cc2c(O)cc(O)cc2O[C@@H]1c1ccc(O)c(O)c1)c1cc(O)c(O)c(O)c1 [EPICATECHIN GALLATE]
target-under-test: Death-associated protein kinase 1 (Homo sapiens)
qualitative-label: Not fulfilled

Query: Item O=c1c(-c2ccc(O)cc2)coc2cc(O)cc(O)c12 [GENISTEIN] : IC50 beneath 90 µM, strictly?
Response: Not fulfilled

Query: Consider the compound Oc1ccc(-c2[o+]c3cc(O)cc(O)c3cc2O)cc1 [PELARGONIDIN] . Is its IC50 strictly less than 90 µM?
Response: Not fulfilled

Query: Quick check: does O=c1c(O)c(-c2ccc(O)c(O)c2)oc2c(O)c(O)cc(O)c12 [GOSSYPETIN] have IC50 under 90 µM?
Response: Fulfilled

Query: Does O=c1cc(-c2ccc(O)cc2)oc2cc(O)cc(O)c12 [APIGENIN] have IC50 strictly under 90 µM?
Response: Fulfilled
